Experiment: self-splicing fitness, log relative to wild type (ln ratio); higher = more splicing; Tetrahymena group I intron in knt gene, E. coli kanamycin selection, DiMSum; sequences stand for … in CUCUCU…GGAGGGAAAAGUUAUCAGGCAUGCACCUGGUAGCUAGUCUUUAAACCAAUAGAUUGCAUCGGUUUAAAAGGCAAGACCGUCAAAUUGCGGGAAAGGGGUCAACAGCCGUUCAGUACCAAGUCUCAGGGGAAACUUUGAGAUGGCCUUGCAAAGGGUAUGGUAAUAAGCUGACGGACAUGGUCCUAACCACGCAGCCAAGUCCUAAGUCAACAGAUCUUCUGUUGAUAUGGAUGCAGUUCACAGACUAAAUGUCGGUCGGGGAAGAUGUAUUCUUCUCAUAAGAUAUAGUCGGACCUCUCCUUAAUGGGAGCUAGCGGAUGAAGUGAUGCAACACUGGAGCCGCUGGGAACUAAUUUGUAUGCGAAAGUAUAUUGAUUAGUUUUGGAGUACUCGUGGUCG;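 further: selection with 25 µg/mL kanamycin versus none on LB agar overnight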
Settings: 37 °C
Decide using self-splicing fitness (ln): a value greater than or equal to -2 is 1.0, a smaller one is 0.0.

Is it the case that UUAGAGCAAUAUUACGUUCG has self-splicing fitness (ln) reaching or exceeding -2?
1.0

Is it the case that CCCAAGCAAUAUUACGUCCG has self-splicing fitness (ln) reaching or exceeding -2?
0.0

Is it the case that CUUCAGCAAUAUUACGGACG has self-splicing fitness (ln) reaching or exceeding -2?
1.0

Is it the case that UGCAAGCAAUAUUACGUUCG has self-splicing fitness (ln) reaching or exceeding -2?
1.0

Is it the case that AAAGAGCAAUAUUACGGAGU has self-splicing fitness (ln) reaching or exceeding -2?
0.0

Is it the case that AGAUAGCAAUAUUACGACGU has self-splicing fitness (ln) reaching or exceeding -2?
1.0

Is it the case that UGAGAGCAAUAUUACGUACU has self-splicing fitness (ln) reaching or exceeding -2?
1.0

Is it the case that UCUUAGCAAUAUUACGACAG has self-splicing fitness (ln) reaching or exceeding -2?
1.0

Is it the case that UCUUAGCAAUAUUACGGACC has self-splicing fitness (ln) reaching or exceeding -2?
1.0

Is it the case that AUUGAGCAAUAUUACGUGGG has self-splicing fitness (ln) reaching or exceeding -2?
1.0

Is it the case that GAGCAGCAAUAUUACGAGAA has self-splicing fitness (ln) reaching or exceeding -2?
0.0

Is it the case that CGAUAGCAAUAUUACGUGGA has self-splicing fitness (ln) reaching or exceeding -2?
0.0

Is it the case that AGACAGCAAUAUUACGUAGC has self-splicing fitness (ln) reaching or exceeding -2?
0.0

Is it the case that CUUUAGCAAUAUUACGAAUU has self-splicing fitness (ln) reaching or exceeding -2?
0.0

Is it the case that AAGCAGCAAUAUUACGACGG has self-splicing fitness (ln) reaching or exceeding -2?
1.0

Is it the case that UAACAGCAAUAUUACGUGGG has self-splicing fitness (ln) reaching or exceeding -2?
0.0

Is it the case that UUCAAGCAAUAUUACGUGGU has self-splicing fitness (ln) reaching or exceeding -2?
0.0

Is it the case that CUGUAGCAAUAUUACGGUUC has self-splicing fitness (ln) reaching or exceeding -2?
0.0

Is it the case that GACAAGCAAUAUUACGAAGU has self-splicing fitness (ln) reaching or exceeding -2?
0.0

Is it the case that GUGCAGCAAUAUUACGCCUG has self-splicing fitness (ln) reaching or exceeding -2?
0.0

Is it the case that AGUCAGCAAUAUUACGUAUU has self-splicing fitness (ln) reaching or exceeding -2?
1.0

----------
Can you tell me self-splicing fitness (ln) for the items I'm about to list?
Test: self-splicing fitness, log relative to wild type (ln ratio); higher = more splicing; Tetrahymena group I intron in knt gene, E. coli kanamycin selection, DiMSum; sequences stand for … in CUCUCU…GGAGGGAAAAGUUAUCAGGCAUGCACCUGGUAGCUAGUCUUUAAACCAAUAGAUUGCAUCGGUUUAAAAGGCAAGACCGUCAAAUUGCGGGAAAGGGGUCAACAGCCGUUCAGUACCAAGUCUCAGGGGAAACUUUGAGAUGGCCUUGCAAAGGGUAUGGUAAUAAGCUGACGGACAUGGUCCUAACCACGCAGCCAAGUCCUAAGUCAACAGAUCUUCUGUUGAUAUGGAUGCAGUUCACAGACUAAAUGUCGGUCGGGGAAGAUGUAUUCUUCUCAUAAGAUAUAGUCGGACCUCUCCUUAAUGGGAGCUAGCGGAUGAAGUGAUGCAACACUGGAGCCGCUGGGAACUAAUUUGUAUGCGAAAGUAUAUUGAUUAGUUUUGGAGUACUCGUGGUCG
Details: 30 °C
I only need the number, thanks.

Name the recorded self-splicing fitness (ln) of the item ACGCAGCAAUAUUACGUCGC in your answer.
-1.16

Name the recorded self-splicing fitness (ln) of the item AACGAGCAAUAUUACGGACG in your answer.
-2.19

Name the recorded self-splicing fitness (ln) of the item AACGAGCAAUAUUACGGGCA in your answer.
-2.92

Name the recorded self-splicing fitness (ln) of the item GACCAGCAAUAUUACGCCGC in your answer.
-3.75

Name the recorded self-splicing fitness (ln) of the item UCGCAGCAAUAUUACGAUUA in your answer.
-1.06

Name the recorded self-splicing fitness (ln) of the item UCCGAGCAAUAUUACGACAG in your answer.
-3.18

Name the recorded self-splicing fitness (ln) of the item AGAAAGCAAUAUUACGUGUC in your answer.
-4.33

Name the recorded self-splicing fitness (ln) of the item CUUCAGCAAUAUUACGAGGA in your answer.
-2.73

Name the recorded self-splicing fitness (ln) of the item ACUCAGCAAUAUUACGCAUG in your answer.
-2.09

Name the recorded self-splicing fitness (ln) of the item UGUGAGCAAUAUUACGAAAA in your answer.
-1.47

Name the recorded self-splicing fitness (ln) of the item AAACAGCAAUAUUACGGGCU in your answer.
-3.15

Name the recorded self-splicing fitness (ln) of the item UUUCAGCAAUAUUACGAGAG in your answer.
-1.8

Name the recorded self-splicing fitness (ln) of the item ACUAAGCAAUAUUACGUCCC in your answer.
-1.43

Name the recorded self-splicing fitness (ln) of the item AUUGAGCAAUAUUACGUCUA in your answer.
-2.12

Name the recorded self-splicing fitness (ln) of the item UUCAAGCAAUAUUACGCCUU in your answer.
-1.8

Name the recorded self-splicing fitness (ln) of the item CACGAGCAAUAUUACGUGAC in your answer.
-2.72

Name the recorded self-splicing fitness (ln) of the item ACAGAGCAAUAUUACGUAGU in your answer.
-1.7

Name the recorded self-splicing fitness (ln) of the item GGCAAGCAAUAUUACGUUAC in your answer.
-1.39

Name the recorded self-splicing fitness (ln) of the item CCAUAGCAAUAUUACGUCUU in your answer.
-3.12

Name the recorded self-splicing fitness (ln) of the item GAAAAGCAAUAUUACGUCAC in your answer.
-2.2

Name the recorded self-splicing fitness (ln) of the item ACGAAGCAAUAUUACGGUGA in your answer.
-2.33

Name the recorded self-splicing fitness (ln) of the item AGAUAGCAAUAUUACGGGGC in your answer.
-2.65

Name the recorded self-splicing fitness (ln) of the item CAUGAGCAAUAUUACGGCUU in your answer.
-2.99

Name the recorded self-splicing fitness (ln) of the item GCCAAGCAAUAUUACGCGAC in your answer.
-2.35

Name the recorded self-splicing fitness (ln) of the item UGUUAGCAAUAUUACGAGCA in your answer.
-0.725

Name the recorded self-splicing fitness (ln) of the item CCGCAGCAAUAUUACGGGUA in your answer.
-4.25

Name the recorded self-splicing fitness (ln) of the item GACAAGCAAUAUUACGAUCA in your answer.
0.0763

Name the recorded self-splicing fitness (ln) of the item AAUCAGCAAUAUUACGGGGG in your answer.
-1.11

Name the recorded self-splicing fitness (ln) of the item UUUUAGCAAUAUUACGGCGG in your answer.
-0.446

Name the recorded self-splicing fitness (ln) of the item GAACAGCAAUAUUACGGGCA in your answer.
-0.822

Name the recorded self-splicing fitness (ln) of the item UAUAAGCAAUAUUACGGUUC in your answer.
-3.49

Name the recorded self-splicing fitness (ln) of the item GGUGAGCAAUAUUACGUGAC in your answer.
-3.14

Name the recorded self-splicing fitness (ln) of the item AGAAAGCAAUAUUACGAAAA in your answer.
-1.74

Name the recorded self-splicing fitness (ln) of the item GCACAGCAAUAUUACGUAUC in your answer.
-0.923

Name the recorded self-splicing fitness (ln) of the item UGUUAGCAAUAUUACGCGAA in your answer.
-0.983

Name the recorded self-splicing fitness (ln) of the item UUGAAGCAAUAUUACGGCCG in your answer.
0.53

Name the recorded self-splicing fitness (ln) of the item GGUUAGCAAUAUUACGUCUC in your answer.
-0.348

Name the recorded self-splicing fitness (ln) of the item UACUAGCAAUAUUACGCAUA in your answer.
-1.99

Name the recorded self-splicing fitness (ln) of the item UCAAAGCAAUAUUACGGGAU in your answer.
-2.04

Name the recorded self-splicing fitness (ln) of the item AUCUAGCAAUAUUACGGAUA in your answer.
-3

Name the recorded self-splicing fitness (ln) of the item CGAAAGCAAUAUUACGCGUA in your answer.
-2.68

Name the recorded self-splicing fitness (ln) of the item UGUAAGCAAUAUUACGUACG in your answer.
-0.346

Name the recorded self-splicing fitness (ln) of the item AAAUAGCAAUAUUACGAUCG in your answer.
-0.864

Name the recorded self-splicing fitness (ln) of the item CAUCAGCAAUAUUACGACGC in your answer.
-2.37

Name the recorded self-splicing fitness (ln) of the item CAGAAGCAAUAUUACGCUCG in your answer.
-1.31

Name the recorded self-splicing fitness (ln) of the item GCGCAGCAAUAUUACGUUUG in your answer.
-1.86

Name the recorded self-splicing fitness (ln) of the item GAGCAGCAAUAUUACGCCUU in your answer.
-3.8
